Source of measurements: patent US20200048328A1

# Experimental Target: T1, human serum albumin (human, UniProt P02768 25-609)
# T1 construct: immobilized on chips or coated on plates elsewhere; also called HSA; HuSA
# Method: direct binding ELISA, albumin coated
Endpoint Label: EC50 (nM)
The reply should contain only the number, in nM.

INSERT INTO measurements (binder, endpoint_label, value_observed) VALUES
  ('PCSK9-PKE2 tandem 4472_F04 (designed binder, The real molecule is ONE polypeptide: PCSK9 domain, undisclosed linker D, PKE2 domain. It is given here as two chains because the linker letters are unknown., not shown: The inter-domain linker) PCSK9 domain: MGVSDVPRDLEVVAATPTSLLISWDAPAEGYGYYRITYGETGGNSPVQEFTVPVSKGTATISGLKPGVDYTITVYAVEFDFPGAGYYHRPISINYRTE PKE2 domain: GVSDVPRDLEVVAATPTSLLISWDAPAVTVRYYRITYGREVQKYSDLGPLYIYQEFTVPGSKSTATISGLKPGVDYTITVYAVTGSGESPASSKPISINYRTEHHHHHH', 'EC50', 40.3);

Any idea what its EC50 is? The binder is PCSK9-PKE2 tandem 4472_E04 (designed binder, not shown: small tags and cut ends, The two parts are one polypeptide in the real molecule, joined by the undisclosed linker Q; they are given here as separate chains.) PCSK9 10Fn3: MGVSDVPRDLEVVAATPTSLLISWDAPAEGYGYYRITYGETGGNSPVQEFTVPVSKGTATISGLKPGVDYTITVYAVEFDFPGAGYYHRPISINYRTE PKE2 10Fn3: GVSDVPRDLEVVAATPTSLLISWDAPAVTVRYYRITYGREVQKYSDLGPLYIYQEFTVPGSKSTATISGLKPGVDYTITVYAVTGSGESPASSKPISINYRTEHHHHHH
101

Same lookup for PCSK9-PKE2 tandem 4472_B10 (designed binder, The real molecule is ONE polypeptide: PCSK9 domain, undisclosed linker J, PKE2 domain. It is given here as two chains because the linker letters are unknown., not shown: The inter-domain linker) PCSK9 domain: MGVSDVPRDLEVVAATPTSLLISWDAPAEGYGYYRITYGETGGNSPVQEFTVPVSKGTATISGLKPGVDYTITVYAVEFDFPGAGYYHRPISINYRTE PKE2 domain: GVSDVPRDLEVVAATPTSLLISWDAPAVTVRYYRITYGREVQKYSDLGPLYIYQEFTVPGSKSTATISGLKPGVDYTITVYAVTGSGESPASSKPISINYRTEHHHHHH , please.
67.7

PCSK9-PKE2 tandem 4472_E09 (designed binder, In the real molecule the two parts given here are one polypeptide, joined by the undisclosed linker A. They are written as two chains only because the linker has no letters., not shown: Linker 'A' joining ...NYRTE of the PCSK9 domain to GVSDV... of the PKE2 domain) PCSK9 domain: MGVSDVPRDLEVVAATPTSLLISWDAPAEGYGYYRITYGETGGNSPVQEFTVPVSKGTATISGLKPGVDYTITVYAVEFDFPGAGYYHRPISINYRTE PKE2 domain: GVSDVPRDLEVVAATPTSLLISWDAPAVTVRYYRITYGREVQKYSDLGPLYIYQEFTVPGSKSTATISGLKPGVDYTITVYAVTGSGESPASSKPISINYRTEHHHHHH ?
23.8
